Recorded values, source paper PMC9482650.

target: GORASP2, Q9H8Y8; assay: holdup assay; parameters: key: below the threshold = too weak to quantify, mostly under pKd 3.1 to 4; details: plain residues with an end cap or a label only (N-terminal biotin on a linker: ttds)
Below is a list of entries, each paired with its recorded pKd value.
// no unit string in output, number only

EMDRRPATVV [PLCB4, Q15147] = 4.23

Query: Which pKd value belongs to VDFPPKESSL [ACVR2A, P27037] ?
Response: 3.87
